Tested on: Lc-2/ad
Experiment: Cell growth curves, human cells
Type: cell-based
Settings: LADC, CCDC6-RET, read-out: IC50 (95% CI), growth inhibition
Method: The IC50 dose for all human RET-negative cells was >100.0 nM, confirming compound selectivity (Figure S8 and Table S4). Nthy-ory-3-1 (10000 per well), TPC-1 (10000 per well), MZ-CRC-1 (100000 per well), TT (200000 per well), Lc-2/ad (100000 per well), BCPAP (10000 per well), 8505-C (10000 per well), PC-9 (10000 per well), A549 (10000 per well), CALU-1 (10000 per well), NIH3T3 RET/C634Y (10000 per well), and NIH3T3 HRAS/G12V (10000 per well) were seeded in six-well tissue culture plates. […]
metric_name: IC50
Remember to put the unit after the number in your answer.

State its IC50 for this compound: "CC(C)(C)c1cc(NC(=O)Cc2ccc(-n3cnc4cc(-c5ccc(S(C)(=O)=O)cc5)ccc43)cc2)no1"
3.6 nM
